- experimental_system: T1, recombinant SARS-CoV-2 Spike RBD domain, XBB.1.5 variant (SARS-CoV-2)
- T1 construct: also called RBD XBB.1.5 variant
- assay_notes: competition ELISA, blocking of RBD binding to ACE2 ectodomain
The binders listed here are annotated with their Blocking %.
measured_endpoint: Blocking %

SPK002M B1 antibody (antibody, human IgG1, kappa, V domains shown) VH: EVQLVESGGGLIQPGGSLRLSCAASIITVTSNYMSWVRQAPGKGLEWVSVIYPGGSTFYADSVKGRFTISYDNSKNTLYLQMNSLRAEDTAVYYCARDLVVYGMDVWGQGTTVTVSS VL: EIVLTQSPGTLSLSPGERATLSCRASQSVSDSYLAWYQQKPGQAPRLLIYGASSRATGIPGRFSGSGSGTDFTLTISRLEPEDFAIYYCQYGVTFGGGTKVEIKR    97%
SPK002M B2 antibody (antibody, human IgG1, kappa, V domains shown) VH: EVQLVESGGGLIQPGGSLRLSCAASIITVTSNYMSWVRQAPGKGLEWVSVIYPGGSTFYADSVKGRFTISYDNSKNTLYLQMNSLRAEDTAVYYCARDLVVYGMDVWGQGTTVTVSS VL: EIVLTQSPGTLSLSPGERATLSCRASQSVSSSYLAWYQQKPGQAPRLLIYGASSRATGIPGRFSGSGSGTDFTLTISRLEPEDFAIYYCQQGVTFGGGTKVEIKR    92%
SPK002M A5 antibody (antibody, human IgG1, kappa, V domains shown) VH: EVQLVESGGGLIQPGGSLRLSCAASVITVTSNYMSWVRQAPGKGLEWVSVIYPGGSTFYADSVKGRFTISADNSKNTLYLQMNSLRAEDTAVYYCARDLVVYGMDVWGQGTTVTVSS VL: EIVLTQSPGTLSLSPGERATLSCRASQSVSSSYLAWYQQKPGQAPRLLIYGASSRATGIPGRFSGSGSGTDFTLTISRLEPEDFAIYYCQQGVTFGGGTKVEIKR    95%
